System: tet operator sequence
MEASUREMENT_DESCRIPTION: β-galactosidase activity of a tetracycline-regulated promoter in transformed E. coli with revTetR, in the presence and absence of anhydrotetracycline (atc)
Type: cell-based, Escherichia coli
DETAILS: RevTetR isolate cultured in the absence of anhydrotetracycline (ATC)
Examples of molecules with documented β-Galactosidase Activity, Cultured Without ATC follow.
QUANTITY_KIND: β-Galactosidase Activity, Cultured Without ATC

- MOLECULE: "TetRrevAF4/5: revTetR(BD) E15G L16L D95A V99G (protein, Modified tetracycline repressor, revTetR(BD) E15G L16L D95A V99G) MSRLDKSKVINSALGLLNEVGIEGLTTRKLAQKLGVEQPTLYWHVKNKRALLDALAVEILARHHDYSLPAAGESWQSFLRNNAMSFRRALLRYRAGAKGHLGTRPDEKQYDTVETQLRFMTENGFSLRDGLYAISAVSHFTLGAVLEQQEHTAALTDRPAAPDENLPPLLREALQIMDSDDGEQAFLHGLESLIRGFEVQLTALLQIV"
  OBS_VALUE: 105.33
- MOLECULE: "TetRrevAF3/5: revTetR(BD) V20F G21R R49S (protein, Modified tetracycline repressor, revTetR(BD) V20F G21R R49S) MSRLDKSKVINSALELLNEFRIEGLTTRKLAQKLGVEQPTLYWHVKNKSTLLDALAVEILARHHDYSLPAAGESWQSFLRNNAMSFRRALLRYRDGAKVHLGTRPDEKQYDTVETQLRFMTENGFSLRDGLYAISAVSHFTLGAVLEQQEHTAALTDRPAAPDENLPPLLREALQIMDSDDGEQAFLHGLESLIRGFEVQLTALLQIV"
  OBS_VALUE: 101.824
- MOLECULE: "TetRrevAtc4-5: revTetR(BD) I59F A61S H64Q A97T (protein, Modified tetracycline repressor, revTetR(BD) I59F A61S H64Q A97T) MSRLDKSKVINSALELLNEVGIEGLTTRKLAQKLGVEQPTLYWHVKNKRALLDALAVEFLSRHQDYSLPAAGESWQSFLRNNAMSFRRALLRYRDGTKVHLGTRPDEKQYDTVETQLRFMTENGFSLRDGLYAISAVSHFTLGAVLEQQEHTAALTDRPAAPDENLPPLLREALQIMDSDDGEQAFLHGLESLIRGFEVQLTALLQIV"
  OBS_VALUE: 98.272
- MOLECULE: "TetRrevAD2/4: revTetR(BD) L17F N18R D53N I59M A61T (protein, Modified tetracycline repressor, revTetR(BD) L17F N18R D53N I59M A61T) MSRLDKSKVINSALELFREVGIEGLTTRKLAQKLGVEQPTLYWHVKNKRALLNALAVEMLTRHHDYSLPAAGESWQSFLRNNAMSFRRALLRYRDGAKVHLGTRPDEKQYDTVETQLRFMTENGFSLRDGLYAISAVSHFTLGAVLEQQEHTAALTDRPAAPDENLPPLLREALQIMDSDDGEQAFLHGLESLIRGFEVQLTALLQIV"
  OBS_VALUE: 32.2603
- MOLECULE: "TetRrevAF5/3: revTetR(BD) E15G N18K R94H G96G G102V (protein, Modified tetracycline repressor, revTetR(BD) E15G N18K R94H G96G G102V) MSRLDKSKVINSALGLLKEVGIEGLTTRKLAQKLGVEQPTLYWHVKNKRALLDALAVEILARHHDYSLPAAGESWQSFLRNNAMSFRRALLRYHDGAKVHLVTRPDEKQYDTVETQLRFMTENGFSLRDGLYAISAVSHFTLGAVLEQQEHTAALTDRPAAPDENLPPLLREALQIMDSDDGEQAFLHGLESLIRGFEVQLTALLQIV"
  OBS_VALUE: 58.5651
- MOLECULE: "TetRrevAF3/8: revTetR(BD) E15V L16L N18H E19D V20D R94P D95H H100N (protein, Modified tetracycline repressor, revTetR(BD) E15V L16L N18H E19D V20D R94P D95H H100N) MSRLDKSKVINSALVLLHDDGIEGLTTRKLAQKLGVEQPTLYWHVKNKRALLDALAVEILARHHDYSLPAAGESWQSFLRNNAMSFRRALLRYPHGAKVNLGTRPDEKQYDTVETQLRFMTENGFSLRDGLYAISAVSHFTLGAVLEQQEHTAALTDRPAAPDENLPPLLREALQIMDSDDGEQAFLHGLESLIRGFEVQLTALLQIV"
  OBS_VALUE: 95.5476
- MOLECULE: "TetRrev96P: revTetR(BD) G96P (protein, Modified tetracycline repressor, revTetR(BD) G96P) MSRLDKSKVINSALELLNEVGIEGLTTRKLAQKLGVEQPTLYWHVKNKRALLDALAVEILARHHDYSLPAAGESWQSFLRNNAMSFRRALLRYRDPAKVHLGTRPDEKQYDTVETQLRFMTENGFSLRDGLYAISAVSHFTLGAVLEQQEHTAALTDRPAAPDENLPPLLREALQIMDSDDGEQAFLHGLESLIRGFEVQLTALLQIV"
  OBS_VALUE: 24.1109
- MOLECULE: "TetRrev1/34: revTetR(BD) L17S E23K (protein, Modified tetracycline repressor, revTetR(BD) L17S E23K) MSRLDKSKVINSALELSNEVGIKGLTTRKLAQKLGVEQPTLYWHVKNKRALLDALAVEILARHHDYSLPAAGESWQSFLRNNAMSFRRALLRYRDGAKVHLGTRPDEKQYDTVETQLRFMTENGFSLRDGLYAISAVSHFTLGAVLEQQEHTAALTDRPAAPDENLPPLLREALQIMDSDDGEQAFLHGLESLIRGFEVQLTALLQIV"
  OBS_VALUE: 79.3141
- MOLECULE: "TetRrevAtc4-24: revTetR(BD) A56P V57A E58Q H63Q (protein, Modified tetracycline repressor, revTetR(BD) A56P V57A E58Q H63Q) MSRLDKSKVINSALELLNEVGIEGLTTRKLAQKLGVEQPTLYWHVKNKRALLDALPAQILARQHDYSLPAAGESWQSFLRNNAMSFRRALLRYRDGAKVHLGTRPDEKQYDTVETQLRFMTENGFSLRDGLYAISAVSHFTLGAVLEQQEHTAALTDRPAAPDENLPPLLREALQIMDSDDGEQAFLHGLESLIRGFEVQLTALLQIV"
  OBS_VALUE: 61.649
